ASSAY PROTOCOL: Quantitative highthroughput screen to assess conditional lethalithy of P12 Ichikawa cells grown in RPMI1640 with untreated serum (RPMI+s) (AID 1963881); note: nearly all actives have a fitted effect of over 35% in size
CONDITION SET: ATP luminescence, 48 h; viability; series mostly up to 45.8 µM
Inconclusive results are not listed. The source made the active and inactive calls. Calls come from the whole dose curve; as a rule, active = well fitted cell-killing curve with a large enough effect; inconclusive = small, poorly fitted or top-dose-only effect; inactive = flat fitted curve, though single readings scatter.
Thanks in advance; please answer with one of these: active, inactive

**Query** State the result this test recorded for CC(C)(C)Cn1c(N)nc2ccc(-c3[nH]c(C(C)(C)C)nc3-c3ccc(F)cc3)nc21 .
**Result** inactive

**Query** State the result this test recorded for CN(C)c1nc(Cc2ccc(NC(=O)c3ccc4ccccc4c3)cc2)nc(Cl)c1CC(=O)O .
**Result** active

**Query** State the result this test recorded for C[C@H]1C[C@H]2[C@@H]3CCC4=CC(=O)C=C[C@]4(C)[C@@H]3C(=O)C[C@]2(C)[C@@]1(O)C(=O)CO .
**Result** inactive

**Query** State the result this test recorded for Cc1ccc(S(=O)(=O)NC(=O)NN2CC3CCCC3C2)cc1 (stereo not given) .
**Result** active

**Query** State the result this test recorded for COC(=O)C1C2CC3c4[nH]c5cc(OC)ccc5c4CCN3CC2CC(OC(=O)c2cc(OC)c(OC)c(OC)c2)C1OC (stereo not given) .
**Result** inactive

**Query** State the result this test recorded for CC(C)Cn1cnc2c(N)nc3ccccc3c21 .
**Result** inactive

**Query** State the result this test recorded for OC(CCN1CCCCC1)(c1ccccc1)C1CC2C=CC1C2 (stereo not given) .
**Result** inactive

* * *

ASSAY PROTOCOL: Viability qHTS for spleen associated tyrosine kinase inhibitor (SYKi) drug resistant MV4-11 cells (AID 1963824); note: nearly all actives have a fitted effect of over 35% in size; note: potency is the fitted concentration of half-maximal effect
CONDITION SET: SYKi-resistant MV4-11 viability, CellTiter-Glo, 72 h; series mostly up to 45 µM
Inconclusive results are not listed. The source made the active and inactive calls. The call rests on the fitted dose curve; in most records, active means well fitted cell-killing curve with a large enough effect; inconclusive means small, poorly fitted or top-dose-only effect, or effect the other way; inactive means no such curve, though single readings can be large or run the other way.
OBSERVATION TYPE: Potency

As a guide, the following entries are already answered.
N#CC1(c2cccc(C(=O)Nc3cc(Oc4ccc5nc(NC(=O)C6CC6)sc5n4)ccc3F)c2Cl)CC1 | 0.58 µM (active)
CC(NN)c1ccccc1 (stereo not drawn) | inactive
CC(=O)OC[C@]12[C@H](OC(C)=O)C(=O)[C@@H]3[C@@H](O)[C@@]14O[C@@]3(C)COC(=O)c1cccnc1[C@@H](C)[C@H](C)C(=O)O[C@@H]([C@H](O)[C@@H]2OC(C)=O)[C@]4(C)O | 3.43 µM (active)
COc1cccc(NCCC2(c3ccccc3)CC(C)(C)OC(C)(C)C2)c1 | inactive
COC(=O)C1=COC(OC2OC(CO)C(O)C(O)C2O)C2C(COC(=O)/C=C/c3ccc(O)c(O)c3)C(O)C(O)C12 (stereo not drawn) | inactive

Per the records, this compound ( C[C@]12CC[C@@H]3c4ccc(O)cc4CC[C@H]3[C@@H]1CC[C@@H]2OC(=O)CCC1CCCC1 ) has Potency equal to inactive

Per the records, this compound ( COC(=O)[C@@H]1C2CC3c4[nH]c5ccccc5c4CCN3CC2CC[C@@H]1O (stereo partly drawn) ) has Potency equal to inactive

Per the records, this compound ( CC(C)(C)c1ccc(-c2nc3c(N4CCN(Cc5ccc6nccnc6c5)CC4)cccc3[nH]2)cc1 ) has Potency equal to 8.2 µM (active)
